Target under test: pooled human IgG (human IgG1,2,3 and 4)
Measured Enzyme Activity Endpoint Assay: IgG of individual entries
Express the result in ng/µL but write the number alone.

PRT-244 (protein) MVTSVWTKGVTPPANFTQGEDVFHAPYVANQGWYDITKTFNGKDDLLCGAATAGNMLHWWFDQNKDQIKRYLEEHPEKQKINFNGEQMFDVKEAIDTKNHQLDSKLFEYFLEKAFPNLSTKHLGVFPDHVIDMFINGYRLSLLNHGPTPVKEGSKDPRGGIFDAVFTRGDQSKLLTSRHDFKEKNLKEISDLIKKELTEGKALGLSHTYANVRINHVINLWGADFDSNGNLKAIAVTDSDSNASIGMKKYFVGVNSSGKVAISAKEIKEDNIGAQVLGLFTLSTGQDSWNQTN
0

Quick check: Enzyme Activity Endpoint Assay: IgG of PRT-169 (protein) MANQEIRYSEVTPYHVTSVWTKGVTPPTDFTQGEDVFHAPYKANQGWYDITKTFNGKDDLLCGAATAGNMLHWWFDQNKDQIKRYLEEHPEKQKINFNGEQMFDVKEAIDTKNDQLDSKLFEYFKEKAFPYLSTKHLGVFPDHVIDMFINGYRLSLTNHGPTPVKEGSKDPRGGIFDAVFTRGDQSKLLTSRHDFKEKNLKEISDLIKKELTEGKALGLSHTYANVRINHVINLWGADFDSNGNLKAIYVTDSDSNASIGMKKYFVGVNSAGKVAISAKEIKEDNIGAQVLGLFTLSTGQDSWNQTN ?
0

Value source: patent US20250027068
